Each recorded value in this set is attributed to patent US20210380702A1.

// reported pKd per item
Target: T1, recombinant cynomolgus monkey PD-L1 expressed with a C-terminal mouse IgG2a Fc tag (cynomolgus monkey)
T1 construct: also called MfPD-L1-mFc; monkey PD-L1-mFc
T1 sequence (chain, as listed by the source limits assumed): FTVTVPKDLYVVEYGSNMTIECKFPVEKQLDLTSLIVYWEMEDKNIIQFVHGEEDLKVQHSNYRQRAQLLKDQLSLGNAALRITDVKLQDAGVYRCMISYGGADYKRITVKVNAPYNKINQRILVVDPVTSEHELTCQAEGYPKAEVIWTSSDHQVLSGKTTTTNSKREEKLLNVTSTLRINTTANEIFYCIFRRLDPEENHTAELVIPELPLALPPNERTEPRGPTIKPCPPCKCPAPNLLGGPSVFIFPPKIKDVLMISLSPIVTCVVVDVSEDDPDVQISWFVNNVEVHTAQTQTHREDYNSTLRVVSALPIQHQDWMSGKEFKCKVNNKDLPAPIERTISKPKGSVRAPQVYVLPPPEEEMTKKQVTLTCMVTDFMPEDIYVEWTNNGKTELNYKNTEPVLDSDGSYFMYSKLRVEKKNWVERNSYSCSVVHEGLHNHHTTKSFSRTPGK
Assay: SPR (Biacore), mAb captured, 37C
Description: Binding association and dissociation rate constants (kₐ and kd, respectively), equilibrium dissociation constants and dissociation half-lives (KD and t_{1/2}, respectively) of antigen binding to purified anti-PD-L1 monoclonal antibodies were determined using a real-time surface plasmon resonance biosensor assay on a Biacore 4000 instrument. […]
pKd: −log10 of the molar value.
measured_endpoint: pKd

H1H9336P (antibody, V domains shown, human IgG1 Fc (H1H prefix)) VH: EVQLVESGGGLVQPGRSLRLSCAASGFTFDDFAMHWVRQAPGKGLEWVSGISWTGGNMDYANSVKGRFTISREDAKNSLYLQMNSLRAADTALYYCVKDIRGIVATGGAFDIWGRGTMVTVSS VL: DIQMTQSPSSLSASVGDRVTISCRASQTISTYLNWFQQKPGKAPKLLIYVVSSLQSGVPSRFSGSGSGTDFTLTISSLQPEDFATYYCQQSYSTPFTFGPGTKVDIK | 10.61
H1H9329P (antibody, V domains shown, human IgG1 Fc (H1H prefix)) VH: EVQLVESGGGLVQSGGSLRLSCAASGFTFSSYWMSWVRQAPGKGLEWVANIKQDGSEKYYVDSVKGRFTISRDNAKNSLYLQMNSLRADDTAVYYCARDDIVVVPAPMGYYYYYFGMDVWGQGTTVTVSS VL: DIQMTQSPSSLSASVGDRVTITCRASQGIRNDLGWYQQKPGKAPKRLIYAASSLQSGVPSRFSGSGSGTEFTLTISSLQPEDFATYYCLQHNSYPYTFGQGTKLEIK | 9.15
H1H8323N (antibody, V domains shown, human IgG1 Fc form (H1H prefix) of numerical identifier 8323) VH: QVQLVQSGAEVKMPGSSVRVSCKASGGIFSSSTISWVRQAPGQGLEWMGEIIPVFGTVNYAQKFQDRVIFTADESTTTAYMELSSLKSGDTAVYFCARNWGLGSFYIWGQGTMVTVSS VL: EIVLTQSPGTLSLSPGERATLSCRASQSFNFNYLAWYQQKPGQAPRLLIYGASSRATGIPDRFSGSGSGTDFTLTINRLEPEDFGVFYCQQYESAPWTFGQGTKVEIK | 10.35
H1H8314N (antibody, V domains shown, human IgG1 Fc form (H1H prefix) of numerical identifier 8314) VH: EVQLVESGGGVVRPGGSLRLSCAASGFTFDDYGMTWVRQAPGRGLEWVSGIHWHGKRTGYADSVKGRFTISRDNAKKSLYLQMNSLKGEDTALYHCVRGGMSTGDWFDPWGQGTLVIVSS VL: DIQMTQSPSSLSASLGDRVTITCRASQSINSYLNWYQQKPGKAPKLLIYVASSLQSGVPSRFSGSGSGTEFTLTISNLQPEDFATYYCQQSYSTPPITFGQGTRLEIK | 10.48
